B1: CDC25B (parent)
chain: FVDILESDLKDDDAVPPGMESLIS

# Variants of: B1
# testName: protein stability index of a GFP-peptide fusion (GPS, HEK-293T) (PSI 1-6); higher = more stable;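 further: lentivirally expressed fusions sorted by FACS into six bins by GFP to DsRed ratio, PSI derived from sequencing read proportions per bin multiplied by bin number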
# recordedConditions: c terminus: a fixed tail appended
assayMetric: protein stability index

>>> measuredresult("FVDILESDLKDDDAVPPGMESLLS [I23L]")
3.07
>>> measuredresult("FVDILESDLKADDAVPPGMESLIS [D11A]")
3
>>> measuredresult("FVDILESDLKDDDAVPAGMESLIS [P17A]")
2.95
>>> measuredresult("FVDILESDLKDDDAVPPGMQSLIS [E20Q]")
3.08
>>> measuredresult("FVDHLESDLKDDDAVPPGMESLIS [I4H]")
3
>>> measuredresult("FVDILESDLHDDDAVPPGMESLIS [K10H]")
2.97
>>> measuredresult("FVPILESDLKDDDAVPPGMESLIS [D3P]")
2.93
>>> measuredresult("FVDIVESDLKDDDAVPPGMESLIS [L5V]")
3.03
>>> measuredresult("FVDILESDMKDDDAVPPGMESLIS [L9M]")
3.03
>>> measuredresult("FVDILESDLKDDDAMPPGMESLIS [V15M]")
3.02
>>> measuredresult("FVDILESDLKDDDAVKPGMESLIS [P16K]")
3
